target: UniProt A0A173FEI8; experiment: Sm.5HTRL cAMP luminescence; type: cell-based
Recorded Metric: EC50 (µM)
Numeric only. Scale: µM

Note to self: EC50 recorded for "CNCCc1c[nH]c2ccc(O)cc12" was 0.154

EC50 reported for this molecule "CN(C)CCc1c[nH]c2ccc(O)cc12" : 2.4

Consider "NCCc1c[nH]c2ccc(O)cc12" . Its measured EC50 is 0.094

---

Exercise: state measured Ki for each of the compounds provided.
molecular target: Sm.5HTRL (Schistosoma mansoni, UniProt A0A173FEI8); assay: Sm.5HTRL cAMP luminescence; format: cell-based; conditions: pKi, estimated using the Cheng-Prusoff equation; inhibition of 500 nM 5-HT
Sequence (A0A173FEI8 1-547): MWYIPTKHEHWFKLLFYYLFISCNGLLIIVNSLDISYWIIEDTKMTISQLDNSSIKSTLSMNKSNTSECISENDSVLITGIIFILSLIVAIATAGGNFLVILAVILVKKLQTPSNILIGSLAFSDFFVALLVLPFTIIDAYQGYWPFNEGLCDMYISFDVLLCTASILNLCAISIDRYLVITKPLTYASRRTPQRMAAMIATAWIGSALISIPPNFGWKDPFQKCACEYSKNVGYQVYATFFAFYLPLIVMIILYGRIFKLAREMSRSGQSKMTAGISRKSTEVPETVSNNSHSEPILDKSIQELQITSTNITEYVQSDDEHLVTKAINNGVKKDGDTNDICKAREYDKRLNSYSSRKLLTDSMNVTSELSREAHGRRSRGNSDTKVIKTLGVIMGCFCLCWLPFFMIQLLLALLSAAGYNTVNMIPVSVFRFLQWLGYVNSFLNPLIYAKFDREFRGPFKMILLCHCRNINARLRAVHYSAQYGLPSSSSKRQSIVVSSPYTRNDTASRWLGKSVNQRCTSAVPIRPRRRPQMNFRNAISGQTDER
Where a name gives a salt, the structure may show the parent alone.
Report as a plain number; the unit nM is understood.

response.value for COc1cc2c(cc1OC)-c1c(OC)c(OC)cc3c1[C@H](C2)N(C)CC3 [D-glaucine] (field: Ki) = 158

What the record says about COc1cc2c3c(c1OC)-c1ccccc1C[C@H]3N(C)CC2 [L-Nuciferine] : Ki is 79.4

Ki reported for this compound CCCN1CCc2cccc3c2[C@H]1Cc1ccc2c(c1-3)OCO2 [(-)-MDO-NPA hydrochloride] : 100

---

molecular target: Sm.5HTRL (Schistosoma mansoni, UniProt A0A173FEI8); experiment: Sm.5HTRL cAMP luminescence; type: cell-based; details: inhibition of 5-HT response; test compound up to 50 μM
Recorded Metric: antagonist activity at Sm.5HTRL (in words)

COc1cc2c(cc1OC)-c1c(OC)c(OC)cc3c1[C@H](C2)N(C)CC3: potent antagonists
COc1cc2c3c(c1OC)-c1cc4c(cc1CC3N(C)CC2)OCO4 (centres unmarked): potent antagonists

---

biological target: Sm.5HTRL (Schistosoma mansoni, UniProt A0A173FEI8); experiment: Sm.5HTRL cAMP luminescence; format: cell-based; conditions: inhibition of 5-HT response; test compound up to 50 μM
Recorded Metric: antagonist activity at Sm.5HTRL (in words)

Example cases with answers are listed next.
COc1cc2c(cc1OC)-c1cc3ccc(OC)c(OC)c3c[n+]1CC2 [Palmatine]: inactive
COc1cc2c3c(c1OC)-c1ccccc1C[C@H]3N(C)CC2 [L-Nuciferine]: potent antagonists
COc1cc2c(cc1OC)[C@H]1Cc3ccc(OC)c(OC)c3CN1CC2 [D-Rotundine]: inactive
COc1cc2cc3c4c(cc(OC)c(OC)c4c2cc1OC)CCN3C [Dehydroglaucine]: inactive

Field antagonist activity at Sm.5HTRL (in words) (entry COc1cc2c(cc1O)C[C@H]1c3c(cc(O)c(OC)c3-2)CCN1C [Boldine] ) reads potent antagonists

---

target: Sm.5HTRL (Schistosoma mansoni); assay: Sm.5HTRL cAMP luminescence; format: cell-based
Recorded Metric: agonist activity at Sm.5HTRL (in words)

Examples with answers:
NCCc1c[nH]c2ccc(Br)cc12: partial agonist activity
C=CCN(CC=C)CCc1c[nH]c2ccc(OC)cc12: inactive
CNCCc1c[nH]c2ccccc12: inactive
COc1ccc2[nH]cc(CCN(C)C)c2c1: inactive

Noted agonist activity at Sm.5HTRL (in words) for "Cc1ccc2[nH]cc(CCN)c2c1" , tested on Sm.5HTRL (Schistosoma mansoni): partial agonist activity

Field agonist activity at Sm.5HTRL (in words) (Sm.5HTRL (Schistosoma mansoni)), entry "CN(C)CCc1c[nH]c2ccccc12" : inactive
